B1: tRNA (parent)
chain: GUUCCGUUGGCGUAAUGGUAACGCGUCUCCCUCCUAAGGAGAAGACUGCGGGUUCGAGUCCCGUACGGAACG

# Variants of: B1
# Experimental details: yeast fitness relative to wild type (ratio to wild type); higher = fitter; tRNA-Arg(CCU), competitive growth, 37 C, YPD
This sample holds only a part of the variants without activity.
Reported property: yeast fitness

| Mutant label | yeast fitness |
| --- | --- |
| A36C G41A | 0.587 |

## Task Given the variant U7A C34G C66U , what is its reported yeast fitness?
## Result ≤ 0.5

## Task Similarly, U3A C5U A42G G52C A57G ?
## Result ≤ 0.5

Source: the RNAGym collection of RNA variant scans (doi:10.1126/science.aae0568)
